# TESTED_ON: T1, His-tagged cynomolgus monkey CD38 (ACRO Biosystems, CD8-05223 [sic]) (cynomolgus monkey, UniProt Q5VAN0 43-301)
# T1 construct: bought protein; used for ELISA coating and as SPR analyte; not shown: His tag
# EXPERIMENT_DESCRIPTION: SPR (second run), His-tagged CD38
REPORTED_ENDPOINT: pKd
One number for each entry, as −log10 of the molar value.

stdin: // returns reported pKd for input 40769p1.2.B4 (scFv, V domains shown) VH: EVQLLESGGDLVQPGGSLRLSCGASGFTFSDHYMSWVRQAPGKGLEWVADISARGSNTWYADSVKGRFTISRDNSENTLYLQMNSLRAEDTAVYYCAKNWNYNYGMDVWGHGTTVTVSS VL: QSVLTQAPSASGTPGQRVTISCSGSSIQNNYVSWYQQLPGTAPKLLIYRNFERPSGVPDRFSASKSGTSASLAISGLQSEDEADYYCASWDDSLNWVFGGGTKLTVL
stdout: 8.11
